# measured-target: EGR1 (endogenous, HL60 cells) (Homo sapiens, UniProt P18146 P18146:1-543)
# Sequence (P18146 whole entry, one chain of several): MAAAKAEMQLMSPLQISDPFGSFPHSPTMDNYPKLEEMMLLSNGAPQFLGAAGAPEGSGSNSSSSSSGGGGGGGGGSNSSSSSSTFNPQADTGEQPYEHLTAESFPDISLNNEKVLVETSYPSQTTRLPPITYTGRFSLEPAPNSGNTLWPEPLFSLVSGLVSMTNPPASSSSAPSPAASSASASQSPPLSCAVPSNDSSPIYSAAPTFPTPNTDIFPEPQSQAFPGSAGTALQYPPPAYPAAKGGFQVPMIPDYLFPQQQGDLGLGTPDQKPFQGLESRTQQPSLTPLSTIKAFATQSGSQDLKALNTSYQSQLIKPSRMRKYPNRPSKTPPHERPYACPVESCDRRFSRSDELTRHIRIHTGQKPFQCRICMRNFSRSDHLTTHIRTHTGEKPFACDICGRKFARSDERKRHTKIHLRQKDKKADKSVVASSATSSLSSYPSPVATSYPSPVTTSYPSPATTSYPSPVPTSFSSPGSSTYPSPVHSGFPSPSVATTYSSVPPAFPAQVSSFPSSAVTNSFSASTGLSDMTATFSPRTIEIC
# assay-remarks: cell_activity; inhibition of CDK5R1 mRNA in HL60 cells 48 h after vitamin D3; figure legend states 502 nM
experimental-endpoint: pIC50
Please note pIC50 is a logarithmic value: minus log10 of concentration in mol/L. Answer with that number alone.

Data request, read-out pIC50, for SEQ ID NO 41 EGR1 consensus decoy (dsDNA) DNA 1: GATGCGTGGGCGTAGG DNA 2: CCTACGCCCACGCATC
6.28
